Tested on: α-glucosidase
Experiment notes: α-Glucosidase inhibition assay (pNPG)
Type: biochemical
Run parameters: at a concentration of 50 µM
Marks after values point to notes of the source that are not given here.
# reported Inhibitory Rate (%); entries follow

Before answering, review these 3 worked examples.
O=c1cc(-c2ccc(O)c(O)c2)oc2cc(O[C@@H]3O[C@H](CO)[C@@H](O)[C@H](O)[C@H]3O)cc(O)c12 [Compound 1, luteolin-7-O-β-D-glucoside]: 10.62 ± 1.39 ^d %
C[C@H]1O[C@H](O[C@H]2[C@H](O)[C@@H](O)[C@@H](O[C@H]3[C@H](O)[C@@H](O)C(O)O[C@@H]3CO)O[C@@H]2CO)[C@H](O)[C@@H](O)[C@@H]1N[C@H]1C=C(CO)[C@@H](O)[C@H](O)[C@H]1O (some centres unmarked) [Acarbose, reference compound]: 99.53 ± 0.01 ^a %
CC1CCC2(C(=O)OC3OC(CO)C(O)C(O)C3OC3OC(CO)C(O)C(O)C3O)CCC3(C)C(=CCC4C5(C)CC(O)C(O)C(C)(CO)C5CCC43C)C2C1(C)O (centres unmarked): 22.91 ± 1.10 ^c %

Which Inhibitory Rate (%) value belongs to O=c1cc(-c2ccc(O)cc2)oc2cc(O)cc(O)c12 ? 29.06 ± 1.86 ^cd %

Which Inhibitory Rate (%) value belongs to COC(=O)[C@H]1O[C@@H](Oc2cc(O)c3c(=O)cc(-c4ccc(O)cc4)oc3c2)[C@H](O)[C@@H](O)[C@@H]1O ? 68.54 ± 2.90 ^b %

Which Inhibitory Rate (%) value belongs to COC(=O)[C@H]1O[C@@H](Oc2cc(-c3cc(=O)c4c(O)cc(O)cc4o3)ccc2O)[C@H](O)[C@@H](O)[C@@H]1O [Compound 5, vitegnoside] ? 69.67 ± 2.20 ^b %

Which Inhibitory Rate (%) value belongs to O=C(O)c1cc(O)c(O)c(O)c1 ? 21.89 ± 3.03 ^c %

Which Inhibitory Rate (%) value belongs to O=c1c(O)c(-c2ccc(O)c(O)c2)oc2cc(O)cc(O)c12 ? 1.27 ± 0.25 ^e %

Which Inhibitory Rate (%) value belongs to COc1ccc(/C=C/C=O)cc1O [Compound 17, 3-hydroxy-4-methoxycinnamaladehyde] ? 8.69 ± 1.94 ^de %

---

# reported pEC50; entries follow
Experiment notes: DPPH free radical scavenging assay
Run parameters: isolated compounds; half scavenging concentration; read-out: DPPH Assay SC50
pEC50 here: minus log base 10 of the concentration, concentration in moles per litre.

Before answering, review these 2 worked examples.
C[C@@H]1O[C@@H](O[C@@H]2[C@@H](O)[C@H](OCCc3ccc(O)c(O)c3)O[C@H](CO)[C@H]2OC(=O)/C=C/c2ccc(O)c(O)c2)[C@H](O)[C@H](O)[C@H]1O [Compound 15, verbascoside]: 5.70
O=C1O[C@H]([C@@H](O)CO)C(O)=C1O [Ascorbic acid, reference compound]: 4.87

Lab note: next molecule to report on.
Which pEC50 value belongs to O=c1cc(-c2ccc(O)c(O)c2)oc2cc(O)cc(O)c12 [Compound 6, luteolin] ? 4.66

---

Experiment notes: Ferric reducing antioxidant power (FRAP) assay
Run parameters: compounds at 50 μM; Trolox equivalent
Protocol: The FRAP assay was determined in accordance with the instructions for the FRAP kit. The total antioxidant activity values were estimated using the Trolox equivalent antioxidant capacity test. Initially, the detection concentration of methanolic extract and different fractions was 80 μg/mL, and the detection concentration of compounds (1–23) was 50 μM. […] The absorbance was then measured using a microplate reader at 593 nm, and the scavenging activity was calculated according to Equation (3). […]
Marks after values point to notes of the source that are not given here.
Observation type: FRAP Assay

O=C1c2cc(CO)ccc2C(=O)c2c(O)cccc21 [Compound 10, 1-hydroxy-6-hydroxymethyl anthraquinone]: 0.01 ± 0.01 ^c mmol Trolox/L
COC(=O)c1cc(O)c2c(c1)C(=O)c1ccccc1C2=O: 0.01± 0.01 ^c mmol Trolox/L
O=c1c(O)c(-c2ccc(O)c(O)c2)oc2cc(O)cc(O)c12: 0.01 ± 0.00 ^c mmol Trolox/L

Lab note: next molecule to report on.
Which FRAP Assay value belongs to O=C(O)C1OC(Oc2cc(-c3cc(=O)c4c(O)cc(O)cc4o3)ccc2O)C(O)C(O)C1O (stereo not shown) [Compound 11, luteolin-3′-O-glucuronide] ? 0.01 ± 0.00 ^c mmol Trolox/L

Values from paper PMC10044725
